- System: gastric acid secretion
- Protocol summary: Assay of the inhibition of gastric acid secretion by using pylorus ligature (Shay et al.)
- Assay type: in vivo, Wistar rats
- Details: Rattus norvegicus, po; 10 mg/kg p.o., pretreatment 30 min; acid titrated 4 hours after pylorus ligature; read-out: % Inhibition in the amount of the acid at a dose of 10 mg/kg p.o. (pretreatment: 30 min)
// reported inhibition at 10 mg/kg per item
Give the value in % but do not write % after it.

O=C(O)/C=C/[S+]([O-])c1ccccc1 (centres unmarked) [Compound D, 3-phenylsulfinyl-2(E)-propenoic acid] :: 22

Quick check: inhibition at 10 mg/kg of O=C(O)/C=C/S(=O)(=O)c1ccccc1 ?
63

Subsequent entry: O=C(O)/C=C\[S+]([O-])c1ccccc1 (centres unmarked) [C, 3-phenylsulfinyl-2(Z)-propenoic acid]
15

Subsequent entry: O=C(O)/C=C/Sc1ccccc1
16

Subsequent entry: COC(=O)/C=C/S(=O)(=O)c1ccccc1 [I, methyl 3-phenylsulfonyl-2(E)-propenoate]
21

Sourced from patent EP0408108A2
